Origin of measurements: patent US8476197B2

# experimental-context: pH 7.5
I would appreciate it if you labelled entries 1.0 when Log P is 3 or higher, otherwise 0.0.

Recorded results for 2 compounds are shown here.
// inclusive: Log P at least 3? input: COC(=O)C(C#N)=C(NC(C)C#N)c1cccnc1Cl (stereo not drawn) [Compound 869] 0.0

Check this compound for Log P at or above 3: CCOC(=O)C(C#N)=C(NC(C)C)c1cccnc1Cl [Compound 823] 0.0

Here is the next item to consider.
Please indicate if the recorded Log P for CCOC(=O)C(C#N)=C(Nc1cc(F)ccc1F)c1cccnc1Cl [Compound 1609] meets or exceeds 3. 0.0

----------
# experimental-context: pH 2.7
Marks after values point to notes of the source that are not given here.
observable: Log P

The recorded Log P for CCOC(=O)C(C#N)=C(NC(C)Cc1ccncc1)c1cccnc1Cl (stereo not shown) is 1.64^[a]

For reference, reported Log P for CCOC(=O)C(C#N)=C(NC(C)C(C)C)c1conc1C (stereo not shown) stands at 3.15^[a]

New cases:
Kindly note the recorded Log P for `CCOC(=O)C(C#N)=C(NCCOc1ccccc1Br)c1cn(C)nc1C(F)F` , which is 3.35^[a]

Just so you know, measured Log P for CCOCC(CC)NC(=C(C#N)C(=O)OCC)c1cn(C)nc1C(F)F (stereo not shown) came out at 3.08^[a]

Log P measured on CCOC(=O)C(C#N)=C(NC(c1ccccc1)C(F)(F)F)c1cn(C)nc1C(F)F (stereo not shown) = 3.55^[a]

Looking up CCOC(=O)C(C#N)=C(NC(C)c1nccs1)c1cnn(C)c1Cl (racemic) [Compound 1483] , I see its Log P listed as 2.42^[a]

The recorded Log P for C=CCCCC(C=C)NC(=C(C#N)C(=O)OCC)c1cccnc1Cl (stereo not shown) is 4.01^[a]

GET /value?item= CCOC(=O)C(C#N)=C(NC(C#N)c1ccccc1Br)c1cn(C)nc1C(F)F (stereo not shown) &field=Log P returns 3.13^[a]

----------
# experimental-context: pH 2.3
Marks after values point to notes of the source that are not given here.
Reported Log P values follow for various molecules

Sample answers from the record:
Value of Log P reported for the molecule CCOC(=O)C(C#N)=C(NC(C)C(C)C)c1cccnc1OC (stereo not drawn) [Compound 961] is 3.52^[c]; 3.52^[b]

Measured Log P of COC(=O)C(C#N)=C(NC(C)C(C)C)c1cccnc1Br (stereo not drawn) [Compound 942] : 3.02

Attention now shifts to the item below.
Lab note: measured Log P of COC(=O)C(C#N)=C(Nc1cccc(SC)c1)c1cccnc1Cl [Compound 339] was 3.04

----------
# experimental-context: pH 2.7
Marks after values point to notes of the source that are not given here.
Below: a set of entries, each annotated with reported Log P.

Use the examples below as a reference point.
compound CCOC(=O)C(C#N)=C(NC(C)c1nc(C)c(C)s1)c1sc(C)nc1C(F)(F)F (racemic) , Log P observed: 3.83^[a]

# Log P of `CCOC(=O)C(C#N)=C(NCc1nc2ccccc2s1)c1ccsc1Br` = 3.55^[a]

So, CCOC(=O)C(C#N)=C(NC(C)c1nc(C)c(C)s1)c1nsc(Cl)c1Cl (racemic) ? Its Log P was 4.01^[a]

Briefly, Log P measured for CCCCCC(C)NC(=C(C#N)C(=O)OCC)c1sc(C)nc1C(F)(F)F (racemic) [Compound 858] : 4.81^[a]

Looking up CCOC(=O)C(C#N)=C(NC(C)C(C)Sc1ccccc1)c1cccnc1Cl (centres unmarked) , I see its Log P listed as 4.13^[a]

New cases:
Lab note: CCOC(=O)C(C#N)=C(NC(C)c1ccc(Cl)cc1)c1conc1C (centres unmarked) gave Log P of 3.62^[a]

// CCOC(=O)C(C#N)=C(NC(C)C1CCC1)c1cccnc1Cl (centres unmarked) : Log P value = 3.55^[a]

Record CC(C)C(C)NC(=C(C#N)C(=O)N(C)C)c1cn(C)nc1C(F)F (centres unmarked) . Reported Log P: 2.45^[a]

In plain terms, CCOC(=O)C(C#N)=C(NC(c1cc2ccccc2s1)C(F)(F)F)c1c(C)nn(C)c1F (racemic) has a documented Log P of 4.25^[a]

Recorded result, `CCOC(=O)C(C#N)=C(NCc1nc(C(F)(F)F)cs1)c1ccsc1Br` , Log P: 3.42^[a]

Given item CCOC(=O)C(C#N)=C(NC(C)c1ccccn1)c1ncc(C(F)(F)F)cc1Cl (racemic) , the value recorded as its Log P is 3.44^[a]

For COC(=O)C(C#N)=C(NC(c1ccc(Cl)cc1)C1CC1)c1cccnc1Cl (centres unmarked) the compound record lists Log P as 3.58^[a]

----------
# experimental-context: pH 2.7
Marks after values point to notes of the source that are not given here.
observable: Log P

Consider CCOC(=O)C(C#N)=C(NC(C)C(C)C)c1cc(Cl)cc(Cl)n1 (stereo not shown) . Its measured Log P is 4.26^[a]

Continuing:
Noted for CCOC(=O)C(C#N)=C(NC(C)C(C)C)c1cn(C)nc1I (stereo not shown) : its Log P reads 3.22^[a]

Just so you know, measured Log P for CCOC(=O)C(C#N)=C(NC(C#N)Cc1ccccc1)c1cn(C)nc1C(F)F (stereo not shown) came out at 2.98^[a]

molecule `CCOC(=O)C(C#N)=C(NCc1ccccn1)c1cn(C)nc1C(F)(F)F` , Log P observed: 2.36^[a]

Entry CCOC(=O)C(C#N)=C(NC(C)COc1cccc(OC)c1)c1cccnc1Cl (stereo not shown) , Log P reported as 3.58^[a]

Lab note: `CCOC(=O)C(C#N)=C(Nc1ccc(C(C)C)cc1)c1cn(C)nc1C(F)F` gave Log P of 3.76^[a]

Record `CCOC(=O)C(C#N)=C(NC1(c2c(F)cccc2F)CC1)c1cccnc1Cl` , field Log P: 3.39^[a]

Noted for `CCOC(=O)C(C#N)=C(Nc1ccccc1SCC)c1cn(C)nc1C(F)F` : its Log P reads 3.46^[a]

Summary for this molecule, CCOC(=O)C(C#N)=C(NC(C)COc1cccc(OC)c1)c1cn(C)nc1C(F)F (stereo not shown) : Log P is 3.35^[a]

According to the records, this molecule CCOC(=O)C(C#N)=C(NC(C)c1ccccn1)c1ccnn1C(F)F (stereo not shown) displays Log P of 2.55^[a]

----------
# experimental-context: pH 2.7
Marks after values point to notes of the source that are not given here.
observable: Log P

Record CCOC(=O)C(C#N)=C(NC(C)c1ccccn1)c1cn(C)cc1C(F)(F)F (racemic) . Reported Log P: 2.92^[a]

Value of Log P reported for the compound CCOC(=O)C(C#N)=C(NC(C)c1ccccn1)c1ccsc1Br (centres unmarked) is 3.1^[a]

Input CCOC(=O)C(C#N)=C(NC(C)COc1c(C)cccc1C)c1ccsc1Br (centres unmarked) . Output Log P: 4.86^[a]

Further cases:
Noted for CCOC(=O)C(C#N)=C(NC(C)C(N)=O)c1cnccc1C(F)(F)F (centres unmarked) : its Log P reads 1.8^[a]

Per the records, this compound ( COC(=O)C(C#N)=C(NC(C)C(C)C)c1cn(C)nc1C(F)F (centres unmarked) ) has Log P equal to 2.8^[a]

Value of measured Log P for the entry CCOC(=O)C(C#N)=C(NC(C)C(C)C)c1ccnc(C(F)(F)F)c1Cl (centres unmarked) : 4.18^[a]

Reported Log P for COC(=O)C(C#N)=C(NC(C)c1ccccc1OC)c1cccnc1Cl (centres unmarked) was 2.84^[a]

Given item `CCOC(=O)C(C#N)=C(Nc1cccc(Cl)c1)c1sccc1Br` , the value recorded as its Log P is 4.09^[a]

----------
Known Log P of a selection of molecules
# experimental-context: pH 7.5
Marks after values point to notes of the source that are not given here.

Lab note: CCOC(=O)C(C#N)=C(Nc1ccccc1SC)c1cccnc1OC [Compound 522] gave Log P of 3.32^[c]; 3.32^[b]

# Log P (molecule: CC(C)C(C)NC(=C(C#N)C(=O)OC1CCC1)c1cccnc1Cl (stereo not shown) [Compound 1284] ) is 3.79^[c]; 3.79^[b]

Please fill in: Log P reported for CNC(=O)C(C#N)=C(NC(C)C(C)C)c1cccnc1Cl (stereo not shown) [Compound 989] = 2.41^[c]; 2.41^[b]

***
Entry C=CCNC(=O)C(C#N)=C(NC(C)C(C)C)c1cccnc1Cl (stereo not shown) [Compound 1458] , Log P reported as 3^[c]; 3^[b]

----------
# experimental-context: pH 7.5
Reported Log P values follow for various compounds
// no unit, no text: just the number

Look over these answered cases.
The compound identified as CCOC(=O)C(C#N)=C(NC(C)C(F)(F)F)c1cccnc1OC (racemic) [Compound 807] registered its Log P at 3.04

Please fill in: Log P reported for CNC(=O)C(C#N)=C(NC(C)c1nccs1)c1cccnc1Cl (racemic) [Compound 269] = 1.69

According to the records, this compound C#CCNC(=C(C#N)C(=O)OCC)c1cccnc1Cl [Compound 1044] displays Log P of 2.05

New cases:
Per the records, this compound ( CCOC(=O)C(C#N)=C(Nc1ccccc1SC)c1ccc(C)nc1Cl [Compound 343] ) has Log P equal to 3.41

Value of Log P reported for the compound CCOC(=O)C(C#N)=C(Nc1ccccc1SC)c1ccc(Cl)nc1Cl [Compound 360] is 3.79

// recorded Log P for COC(=O)C(C#N)=C(NC1CCSC1)c1cccnc1Cl (stereo not drawn) [Compound 22] : 2.23
